molecular target: RAF proto-oncogene serine/threonine-protein kinase (Homo sapiens); assay: Enzymatic radiometric [Km ATP] KinaseProfiler LeadHunter assay, kinase: c-RAF, catalogue number: 14-352KP The assay has been performed by Eurofins Discovery.; details: ATP concentration 120.0 uM, Test compound concentration 10.0 uM
Give Activity for every item shown.
# unit: % | format: bare number

Incoming: Value wanted: Activity (RAF proto-oncogene serine/threonine-protein kinase (Homo sapiens)) of entry CC(C)[C@@H](Nc1ncnc2[nH]ccc12)c1ccc2c(c1)S(=O)(=O)CCC2
Outgoing: 97

Incoming: Please give the result for Cn1ncc(-c2cc3c(N[C@@H](c4ccc5c(n4)OCCO5)C(C)(C)C)ncnc3[nH]2)c1C#N too.
Outgoing: 87

Incoming: Please give the result for CC(C)[C@H](Nc1ncnc2[nH]c(-c3cnn(C)c3C#N)cc12)c1ccc2c(n1)OCCO2 too.
Outgoing: 97

Incoming: Please give the result for COc1ccc([C@H](Cc2nnn[nH]2)NC(=O)c2ncnc3[nH]ccc23)cc1 too.
Outgoing: 103

Incoming: Please give the result for COc1ccc([C@@H](Cc2nnn[nH]2)NC(=O)c2ncnc3[nH]ccc23)cc1 too.
Outgoing: 90

Incoming: Please give the result for CC(C)[C@@H](Nc1ncnc2[nH]c(C(=O)N[C@@H]3CCN(C)C3)cc12)c1ccc2c(c1)S(=O)(=O)CCC2 too.
Outgoing: 105

Incoming: Please give the result for CC(C)[C@H](Nc1ncnc2[nH]ccc12)c1ccc2c(c1)S(=O)(=O)CCC2 too.
Outgoing: 107

Incoming: Please give the result for Cc1nn(C)cc1-c1cc2c(N[C@H](c3ccc4c(c3)S(=O)(=O)CCC4)C(C)C)ncnc2[nH]1 too.
Outgoing: 93

Incoming: Please give the result for C[C@H](C(=O)O)[C@@H](NC(=O)c1ncnc2[nH]ccc12)c1ccc(Br)cc1 too.
Outgoing: 108

Incoming: Please give the result for CNCc1cc(-c2cc3c(N[C@@H](c4ccc5c(c4)S(=O)(=O)CCC5)C(C)C)ncnc3[nH]2)co1 too.
Outgoing: 100

Incoming: Please give the result for CNC(=O)Cn1cc(-c2cc3c(N[C@@H](c4ccc5c(c4)S(=O)(=O)CCC5)C(C)C)ncnc3[nH]2)cn1 too.
Outgoing: 102

* * *

biological target: Serine/threonine-protein kinase pim-1 (Homo sapiens); assay: Enzymatic radiometric [Km ATP] KinaseProfiler LeadHunter assay, kinase: Pim-1, catalogue number: 14-573KP The assay has been performed by Eurofins Discovery.; conditions: ATP concentration 90.0 uM, Test compound concentration 10.0 uM
outcome.measure: Activity (%)
# unit: % | format: bare number

Incoming: Looking for the measured Activity of CNC(=O)Cn1cc(-c2cc3c(N[C@@H](c4ccc5c(c4)S(=O)(=O)CCC5)C(C)C)ncnc3[nH]2)cn1 , can you help?
Outgoing: 97

Incoming: Please give the result for CNCc1cc(-c2cc3c(N[C@@H](c4ccc5c(c4)S(=O)(=O)CCC5)C(C)C)ncnc3[nH]2)co1 too.
Outgoing: 93

Incoming: Please give the result for COc1ccc([C@@H](Cc2nnn[nH]2)NC(=O)c2ncnc3[nH]ccc23)cc1 too.
Outgoing: 91

Incoming: Please give the result for Cc1nn(C)cc1-c1cc2c(N[C@H](c3ccc4c(c3)S(=O)(=O)CCC4)C(C)C)ncnc2[nH]1 too.
Outgoing: 95

Incoming: Please give the result for CC(C)[C@@H](Nc1ncnc2[nH]ccc12)c1ccc2c(c1)S(=O)(=O)CCC2 too.
Outgoing: 80

Incoming: Please give the result for Cn1ncc(-c2cc3c(N[C@@H](c4ccc5c(n4)OCCO5)C(C)(C)C)ncnc3[nH]2)c1C#N too.
Outgoing: 107

Incoming: Please give the result for CC(C)[C@@H](Nc1ncnc2[nH]c(C(=O)N[C@@H]3CCN(C)C3)cc12)c1ccc2c(c1)S(=O)(=O)CCC2 too.
Outgoing: 97

Incoming: Please give the result for C[C@H](C(=O)O)[C@@H](NC(=O)c1ncnc2[nH]ccc12)c1ccc(Br)cc1 too.
Outgoing: 95

* * *

target: Rho-associated protein kinase 1 (Homo sapiens); experiment: Enzymatic radiometric [Km ATP] KinaseProfiler LeadHunter assay, kinase: ROCK-I, catalogue number: 14-601KP The assay has been performed by Eurofins Discovery.; conditions: ATP concentration 70.0 uM, Test compound concentration 10.0 uM
outcome.measure: Activity (%)
# unit: % | format: bare number

Incoming: Looking for the measured Activity of Cc1nn(C)cc1-c1cc2c(N[C@H](c3ccc4c(c3)S(=O)(=O)CCC4)C(C)C)ncnc2[nH]1 , can you help?
Outgoing: 103

Incoming: Please give the result for CC(C)[C@@H](Nc1ncnc2[nH]c(C(=O)N[C@@H]3CCN(C)C3)cc12)c1ccc2c(c1)S(=O)(=O)CCC2 too.
Outgoing: 98

Incoming: Please give the result for C[C@H](C(=O)O)[C@@H](NC(=O)c1ncnc2[nH]ccc12)c1ccc(Br)cc1 too.
Outgoing: 90

Incoming: Please give the result for CC(C)[C@@H](Nc1ncnc2[nH]ccc12)c1ccc2c(c1)S(=O)(=O)CCC2 too.
Outgoing: 110

* * *

target: MAP kinase-activated protein kinase 5 (Homo sapiens) (UniProt Q8IW41); assay: Enzymatic radiometric [Km ATP] KinaseProfiler LeadHunter assay, kinase: PRAK, catalogue number: 14-334KP The assay has been performed by Eurofins Discovery.; settings: ATP concentration 15.0 uM, Test compound concentration 10.0 uM
Sequence (Q8IW41 whole entry): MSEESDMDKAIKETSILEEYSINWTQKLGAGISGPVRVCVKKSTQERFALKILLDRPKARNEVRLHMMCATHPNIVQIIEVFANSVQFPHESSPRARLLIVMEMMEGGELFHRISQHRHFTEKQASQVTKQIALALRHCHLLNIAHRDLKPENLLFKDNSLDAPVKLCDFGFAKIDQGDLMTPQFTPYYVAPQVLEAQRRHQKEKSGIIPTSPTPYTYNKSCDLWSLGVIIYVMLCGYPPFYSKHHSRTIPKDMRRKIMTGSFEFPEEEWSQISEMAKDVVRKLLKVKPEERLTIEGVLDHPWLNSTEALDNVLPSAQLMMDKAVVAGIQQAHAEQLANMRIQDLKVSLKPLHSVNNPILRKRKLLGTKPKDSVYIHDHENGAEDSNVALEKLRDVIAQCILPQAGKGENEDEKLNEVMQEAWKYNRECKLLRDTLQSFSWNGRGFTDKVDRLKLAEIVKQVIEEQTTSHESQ
outcome.measure: Activity (%)
# unit: % | format: bare number

Incoming: Looking for the measured Activity of Cc1nn(C)cc1-c1cc2c(N[C@H](c3ccc4c(c3)S(=O)(=O)CCC4)C(C)C)ncnc2[nH]1 , can you help?
Outgoing: 82

Incoming: Please give the result for Cn1ncc(-c2cc3c(N[C@@H](c4ccc5c(n4)OCCO5)C(C)(C)C)ncnc3[nH]2)c1C#N too.
Outgoing: 86

Incoming: Please give the result for C[C@H](C(=O)O)[C@@H](NC(=O)c1ncnc2[nH]ccc12)c1ccc(Br)cc1 too.
Outgoing: 88

Incoming: Please give the result for CC(C)[C@H](Nc1ncnc2[nH]c(-c3cnn(C)c3C#N)cc12)c1ccc2c(n1)OCCO2 too.
Outgoing: 84

Incoming: Please give the result for COc1ccc([C@@H](Cc2nnn[nH]2)NC(=O)c2ncnc3[nH]ccc23)cc1 too.
Outgoing: 95

* * *

target: Protein kinase C alpha type (Homo sapiens); assay: Enzymatic radiometric [Km ATP] KinaseProfiler LeadHunter assay, kinase: PKC-alpha, catalogue number: 14-484KP The assay has been performed by Eurofins Discovery.; settings: ATP concentration 45.0 uM, Test compound concentration 10.0 uM
Give Activity for every item shown.
# unit: % | format: bare number

Incoming: Looking for the measured Activity of COc1ccc([C@H](Cc2nnn[nH]2)NC(=O)c2ncnc3[nH]ccc23)cc1 , can you help?
Outgoing: 93

Incoming: Please give the result for C[C@H](C(=O)O)[C@@H](NC(=O)c1ncnc2[nH]ccc12)c1ccc(Br)cc1 too.
Outgoing: 108

Incoming: Please give the result for COc1ccc([C@@H](Cc2nnn[nH]2)NC(=O)c2ncnc3[nH]ccc23)cc1 too.
Outgoing: 95

Incoming: Please give the result for Cn1ncc(-c2cc3c(N[C@@H](c4ccc5c(n4)OCCO5)C(C)(C)C)ncnc3[nH]2)c1C#N too.
Outgoing: 87

Incoming: Please give the result for Cc1nn(C)cc1-c1cc2c(N[C@H](c3ccc4c(c3)S(=O)(=O)CCC4)C(C)C)ncnc2[nH]1 too.
Outgoing: 93

Incoming: Please give the result for CNC(=O)Cn1cc(-c2cc3c(N[C@@H](c4ccc5c(c4)S(=O)(=O)CCC5)C(C)C)ncnc3[nH]2)cn1 too.
Outgoing: 95

Incoming: Please give the result for CC(C)[C@H](Nc1ncnc2[nH]ccc12)c1ccc2c(c1)S(=O)(=O)CCC2 too.
Outgoing: 98

Incoming: Please give the result for CC(C)[C@@H](Nc1ncnc2[nH]c(C(=O)N[C@@H]3CCN(C)C3)cc12)c1ccc2c(c1)S(=O)(=O)CCC2 too.
Outgoing: 101

Incoming: Please give the result for CNCc1cc(-c2cc3c(N[C@@H](c4ccc5c(c4)S(=O)(=O)CCC5)C(C)C)ncnc3[nH]2)co1 too.
Outgoing: 99

Incoming: Please give the result for CC(C)[C@@H](Nc1ncnc2[nH]ccc12)c1ccc2c(c1)S(=O)(=O)CCC2 too.
Outgoing: 104

* * *

Give Activity for every item shown.
target: Serine/threonine-protein kinase 4 (Homo sapiens); test: Enzymatic radiometric [Km ATP] KinaseProfiler LeadHunter assay, kinase: MST1, catalogue number: 14-624KP The assay has been performed by Eurofins Discovery.; settings: ATP concentration 90.0 uM, Test compound concentration 10.0 uM
# unit: % | format: bare number

Incoming: Looking for the measured Activity of C[C@H](C(=O)O)[C@@H](NC(=O)c1ncnc2[nH]ccc12)c1ccc(Br)cc1 , can you help?
Outgoing: 121

Incoming: Please give the result for COc1ccc([C@@H](Cc2nnn[nH]2)NC(=O)c2ncnc3[nH]ccc23)cc1 too.
Outgoing: 98

Incoming: Please give the result for CC(C)[C@H](Nc1ncnc2[nH]c(-c3cnn(C)c3C#N)cc12)c1ccc2c(n1)OCCO2 too.
Outgoing: 120

Incoming: Please give the result for CC(C)[C@H](Nc1ncnc2[nH]ccc12)c1ccc2c(c1)S(=O)(=O)CCC2 too.
Outgoing: 126

Incoming: Please give the result for CNCc1cc(-c2cc3c(N[C@@H](c4ccc5c(c4)S(=O)(=O)CCC5)C(C)C)ncnc3[nH]2)co1 too.
Outgoing: 108

Incoming: Please give the result for CNC(=O)Cn1cc(-c2cc3c(N[C@@H](c4ccc5c(c4)S(=O)(=O)CCC5)C(C)C)ncnc3[nH]2)cn1 too.
Outgoing: 112

Incoming: Please give the result for Cn1ncc(-c2cc3c(N[C@@H](c4ccc5c(n4)OCCO5)C(C)(C)C)ncnc3[nH]2)c1C#N too.
Outgoing: 115

Incoming: Please give the result for Cc1nn(C)cc1-c1cc2c(N[C@H](c3ccc4c(c3)S(=O)(=O)CCC4)C(C)C)ncnc2[nH]1 too.
Outgoing: 115

Incoming: Please give the result for CC(C)[C@@H](Nc1ncnc2[nH]ccc12)c1ccc2c(c1)S(=O)(=O)CCC2 too.
Outgoing: 88

Incoming: Please give the result for COc1ccc([C@H](Cc2nnn[nH]2)NC(=O)c2ncnc3[nH]ccc23)cc1 too.
Outgoing: 127

Incoming: Please give the result for CC(C)[C@@H](Nc1ncnc2[nH]c(C(=O)N[C@@H]3CCN(C)C3)cc12)c1ccc2c(c1)S(=O)(=O)CCC2 too.
Outgoing: 122

These measurements were taken from ChEMBL document CHEMBL5442741.
